- System: HeLa Kyoto;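 further: HeLa Kyoto cells synchronized by double thymidine or nocodazole block, proteins quantified by TMT10plex mass spectrometry, three independent biological replicates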
- method.summary: melting temperature (median over replicates), in situ; higher = more thermally stable
- experimental.context: cell cycle stage: G1/S
Overview of recorded melting temperature for various sequences
outcome.measure: melting temperature (°C)

sequence.string	readout.units	reading
MSDFDSNPFADPDLNNPFKDPSVTQVTRNVPPGLDEYNPFSDSRTPPPGGVKMPNVPNTQPAIMKPTEEHPAYTQIAKEHALAQAELLKRQEELERKAAELDRREREMQNLSQHGRKNNWPPLPSNFPVGPCFYQDFSVDIPVEFQKTVKLMYYLWMFHAVTLFLNIFGCLAWFCVDSARAVDFGLSILWFLLFTPCSFVCWYRPLYGAFRSDSSFRFFVFFFVYICQFAVHVLQAAGFHNWGNCGWISSLTGLNQNIPVGIMMIIIAALFTASAVISLVMFKKVHGLYRTTGASFEKAQQEFATGVMSNKTVQTAAANAASTAASSAAQNAFKGNQI [SCAMP1]	°C	55.8
MAAAEPAVLALPNSGAGGAGAPSGTVPVLFCFSVFARPSSVPHGAGYELLIQKFLSLYGDQIDMHRKFVVQLFAEEWGQYVDLPKGFAVSERCKVRLVPLQIQLTTLGNLTPSSTVFFCCDMQERFRPAIKYFGDIISVGQRLLQGARILGIPVIVTEQYPKGLGSTVQEIDLTGVKLVLPKTKFSMVLPEVEAALAEIPGVRSVVLFGVETHVCIQQTALELVGRGVEVHIVADATSSRSMMDRMFALERLARTGIIVTTSEAVLLQLVADKDHPKFKEIQNLIKASAPESGLLSKV [ISOC1]	°C	55.3
MERPQPDSMPQDLSEALKEATKEVHTQAENAEFMRNFQKGQVTRDGFKLVMASLYHIYVALEEEIERNKESPVFAPVYFPEELHRKAALEQDLAFWYGPRWQEVIPYTPAMQRYVKRLHEVGRTEPELLVAHAYTRYLGDLSGGQVLKKIAQKALDLPSSGEGLAFFTFPNIASATKFKQLYRSRMNSLEMTPAVRQRVIEEAKTAFLLNIQLFEELQELLTHDTKDQSPSRAPGLRQRASNKVQDSAPVETPRGKPPLNTRSQAPLLRWVLTLSFLVATVAVGLYAM [HMOX1]	°C	52.6
MDSFNYTTPDYGHYDDKDTLDLNTPVDKTSNTLRVPDILALVIFAVVFLVGVLGNALVVWVTAFEAKRTINAIWFLNLAVADFLSCLALPILFTSIVQHHHWPFGGAACSILPSLILLNMYASILLLATISADRFLLVFKPIWCQNFRGAGLAWIACAVAWGLALLLTIPSFLYRVVREEYFPPKVLCGVDYSHDKRRERAVAIVRLVLGFLWPLLTLTICYTFILLRTWSRRATRSTKTLKVVVAVVASFFIFWLPYQVTGIMMSFLEPSSPTFLLLKKLDSLCVSFAYINCCINPIIYVVAGQGFQGRLRKSLPSLLRNVLTEESVVRESKSFTRSTVDTMAQKTQAV [C5AR1]	°C	57.8
MEGGLGRAVCLLTGASRGFGRTLAPLLASLLSPGSVLVLSARNDEALRQLEAELGAERSGLRVVRVPADLGAEAGLQQLLGALRELPRPKGLQRLLLINNAGSLGDVSKGFVDLSDSTQVNNYWALNLTSMLCLTSSVLKAFPDSPGLNRTVVNISSLCALQPFKGWALYCAGKAARDMLFQVLALEEPNVRVLNYAPGPLDTDMQQLARETSVDPDMRKGLQELKAKGKLVDCKVSAQKLLSLLEKDEFKSGAHVDFYDK [SPR]	°C	53.8
MSSDFEGYEQDFAVLTAEITSKIARVPRLPPDEKKQMVANVEKQLEEAKELLEQMDLEVREIPPQSRGMYSNRMRSYKQEMGKLETDFKRSRIAYSDEVRNELLGDDGNSSENQRAHLLDNTERLERSSRRLEAGYQIAVETEQIGQEMLENLSHDREKIQRARERLRETDANLGKSSRILTGMLRRIIQNRILLVILGIIVVITILMAITFSVRRH [VTI1A]	°C	55.6
MAAETRNVAGAEAPPPQKRYYRQRAHSNPMADHTLRYPVKPEEMDWSELYPEFFAPLTQNQSHDDPKDKKEKRAQAQVEFADIGCGYGGLLVELSPLFPDTLILGLEIRVKVSDYVQDRIRALRAAPAGGFQNIACLRSNAMKHLPNFFYKGQLTKMFFLFPDPHFKRTKHKWRIISPTLLAEYAYVLRVGGLVYTITDVLELHDWMCTHFEEHPLFERVPLEDLSEDPVVGHLGTSTEEGKKVLRNGGKNFPAIFRRIQDPVLQAVTSQTSLPGH [METTL1]	°C	52.4
MFKKFDEKENVSNCIQLKTSVIKGIKNQLIEQFPGIEPWLNQIMPKKDPVKIVRCHEHIEILTVNGELLFFRQREGPFYPTLRLLHKYPFILPHQQVDKGAIKFVLSGANIMCPGLTSPGAKLYPAAVDTIVAIMAEGKQHALCVGVMKMSAEDIEKVNKGIGIENIHYLNDGLWHMKTYK [MCTS1]	°C	54.8
MSFLQDPSFFTMGMWSIGAGALGAAALALLLANTDVFLSKPQKAALEYLEDIDLKTLEKEPRTFKAKELWEKNGAVIMAVRRPGCFLCREEAADLSSLKSMLDQLGVPLYAVVKEHIRTEVKDFQPYFKGEIFLDEKKKFYGPQRRKMMFMGFIRLGVWYNFFRAWNGGFSGNLEGEGFILGGVFVVGSGKQGILLEHREKEFGDKVNLLSVLEAAKMIKPQTLASEKK [FAM213A]	°C	56.6
MESGDEAAIERHRVHLRSATLRDAVPATLHLLPCEVAVDGPAPVGRFFTPAIRQGPEGLEVSFRGRCLRGEEVAVPPGLVGYVMVTEEKKVSMGKPDPLRDSGTDDQEEEPLERDFDRFIGATANFSRFTLWGLETIPGPDAKVRGALTWPSLAAAIHAQVPED [RNASEH2C]	°C	50.7
MAAPWASLRLVAPMWNGRIRGIHRLGAAVAPEGNQKKKRTILQFLTNYFYDVEALRDYLLQREMYKVHEKNRSYTWLEKQHGPYGAGAFFILKQGGAVKFRDKEWIRPDKYGHFSQEFWNFCEVPVEAVDAGDCDINYEGLDNLLRLKELQSLSLQRCCHVDDWCLSRLYPLADSLQELSLAGCPRISERGLACLHHLQNLRRLDISDLPAVSNPGLTQILVEEMLPNCEVVGVDWAEGLKSGPEEQPRDTASPVPA [ATP5SL]	°C	52.9

The measured values listed here are drawn from the supplement of paper PMC5998384.
